measurement.description: protein stability index of a GFP-peptide fusion (yeast GPS) (PSI 1-4); higher = more stable; sorted into four equal gates, so the index is relative within each strain
reported.conditions: pdr5∆
property: protein stability index
Give the value as a plain number.

Form: sequence = GNLSGKRVDFSGRTVIS [RPO31] ; protein stability index = 3.01

Form: sequence = LPHITQLEGFESRKAFF [RPB2] ; protein stability index = 2.96

Form: sequence = IAMPKRRMAFKPFGSAK [YLR335W/NUP2] ; protein stability index = 3.09

Form: sequence = ISENTFPNGFKNFENGP [RPC34] ; protein stability index = 3.03

Form: sequence = RRFKNGFQTGSAKATSA [RPL37B] ; protein stability index = 3.08

Form: sequence = TNQDGLKFVKVRVRTTK [RPB2] ; protein stability index = 3.05

Form: sequence = NKKGRGHVKPVRCVNCS [RPS26A] ; protein stability index = 2.98

Form: sequence = LLVDKDANGVSLFELIV [YJL039C/NUP192] ; protein stability index = 3.05

Form: sequence = RMKQYLKTKLLEEVEGS [RPB7] ; protein stability index = 3.09

Form: sequence = EKSTQLQQKHELDTASR [YGR119C/NUP57] ; protein stability index = 3.06

Form: sequence = KRQYVKQFLTKDLKFPL [RPL20A] ; protein stability index = 2.94
